// data source = ChEMBL document CHEMBL3297688

Consider the following compounds; for each one, report its Activity.
tested on: Mus musculus; test: Antinociceptive activity in OF1 mouse acute central pain model at 150 mg/kg, po administered with EtOH/PEG400/water after 60 mins by hot plate test relative to vehicle-treated control; format: functional
Lab book: enter the figure in %, no units written.

Exam item: Requested read-out: Activity. Entry: CCOC(=O)OC(C)OC(=O)CNC(=O)[C@@H](CSSC[C@@H](N)CCSC)Cc1ccccc1.O=CO (stereo not given in full)
Marked response: 7

Exam item: Please look up its Activity: CCC(=O)OC(OC(=O)CNC(=O)[C@@H](CSSC[C@@H](N)CCSC)Cc1ccccc1)C1CCCCC1 (stereo not given in full)
Marked response: 12

Exam item: Activity for CCOC(=O)OC(OC(=O)CNC(=O)[C@@H](CSSC[C@@H](N)CCSC)Cc1ccccc1)C(C)C (stereo not given in full) ?
Marked response: 0

Exam item: Query (compound): CCOC(=O)OC(OC(=O)CNC(=O)[C@@H](CSSC[C@@H](N)CCSC)Cc1ccccc1)C1CCCCC1 (stereo not given in full) ; field requested: Activity
Marked response: 8

Exam item: What measured Activity goes with CCC(=O)OC(OC(=O)CNC(=O)[C@@H](CSSC[C@@H](N)CCSC)Cc1ccccc1)C(C)C (stereo not given in full) ?
Marked response: 8

* * *

test system: Mus musculus; test: Antinociceptive activity in OF1 mouse acute central pain model at 150 mg/kg, po administered with EtOH/PEG400/water after 40 mins by hot plate test relative to vehicle-treated control; assay type: functional
Entries whose Activity is below 20% take Met; entries at or above 20% take Not met.

Exam item: # check: Activity < 20% for CCOC(=O)OC(OC(=O)CNC(=O)[C@@H](CSSC[C@@H](N)CCSC)Cc1ccccc1)C1CCCCC1 (stereo not given in full)
Marked response: Met

Exam item: Hi there! Is Activity for CCOC(=O)OC(OC(=O)CNC(=O)[C@@H](CSSC[C@@H](N)CCSC)Cc1ccccc1)C(C)C (stereo not given in full) below 20%, do you know?
Marked response: Met

Exam item: Activity under 20%? Item: CCC(=O)OC(OC(=O)CNC(=O)[C@@H](CSSC[C@@H](N)CCSC)Cc1ccccc1)C1CCCCC1 (stereo not given in full)
Marked response: Met

Exam item: Determine if CCOC(=O)OC(C)OC(=O)CNC(=O)[C@@H](CSSC[C@@H](N)CCSC)Cc1ccccc1.O=CO (stereo not given in full) shows Activity strictly lower than 20%.
Marked response: Not met

Exam item: Hello, is Activity of the following molecule strictly smaller than 20%? CCC(=O)OC(OC(=O)CNC(=O)[C@@H](CSSC[C@@H](N)CCSC)Cc1ccccc1)C(C)C (stereo not given in full)
Marked response: Not met
